- targetUnderTest: T1, HLA-B*07:02 (human)
- T1 construct: also called peptide-receptive MHC molecules
- testDetails: UV-exchange b2m ELISA; exchange-yield grade
- Text: Candidate peptides for T cell based therapies according to the present invention were further tested for their MHC binding capacity (affinity). The individual peptide-MHC complexes were produced by UV-ligand exchange, where a UV-sensitive peptide is cleaved upon UV-irradiation, and exchanged with the peptide of interest as analyzed. Only peptide candidates that can effectively bind and stabilize the peptide-receptive MHC molecules prevent dissociation of the MHC complexes. […]
recordedMetric: peptide exchange yield

Field: example entries. Status: answers known.
{"columns": ["binder", "peptide exchange yield"],
 "data": [
  ["NPSSTTTEF", "50 to 75%"],
  ["TAKTPDATF", "20 to 50%"]
]}

Challenge: I am curious: what peptide exchange yield value has been reported for `HPVETSSAL` ?
Response given: 50 to 75%

Challenge: I am curious: what peptide exchange yield value has been reported for `KPYGGSGPL` ?
Response given: 50 to 75%

Challenge: I am curious: what peptide exchange yield value has been reported for `MPLTTGSQGM` ?
Response given: 20 to 50%
